Protein target, amino acids: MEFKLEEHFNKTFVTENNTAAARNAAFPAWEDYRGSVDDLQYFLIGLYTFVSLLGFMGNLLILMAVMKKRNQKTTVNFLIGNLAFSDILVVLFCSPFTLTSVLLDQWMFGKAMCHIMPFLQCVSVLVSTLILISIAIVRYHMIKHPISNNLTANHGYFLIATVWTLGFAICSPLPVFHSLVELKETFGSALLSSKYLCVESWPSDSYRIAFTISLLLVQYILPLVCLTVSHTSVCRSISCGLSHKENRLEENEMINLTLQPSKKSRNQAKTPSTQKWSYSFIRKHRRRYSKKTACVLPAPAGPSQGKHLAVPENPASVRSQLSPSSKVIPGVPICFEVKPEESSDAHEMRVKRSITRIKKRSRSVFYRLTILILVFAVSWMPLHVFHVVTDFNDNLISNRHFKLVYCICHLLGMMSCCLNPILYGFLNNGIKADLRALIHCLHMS
quantity_measured: pIC50
In textbook form, pIC50 equals minus log to base ten of the concentration in mol/L.

O=C1O[C@]2(CC[C@H](C(=O)Nc3ccn(-c4ccccc4)n3)CC2)c2cnccc21 :: 8.66

Now for another entry.
Qu. Name the recorded pIC50 of the item O=C1OC2(CCC(C(=O)Nc3cnc(-c4ccccc4)cn3)CC2)c2ccccc21 (configuration not stated) in your answer.
Ans. 8.60

----------
# experiment: in vitro
# condition_description: rat, hepatocytes
# Description: Clearance in rat hepatocytes
Each entry below lists one item and its recorded log10(CLhep predicted) value.
Recorded CLhep predicted (log10, mL/min/kg)

O=C1O[C@]2(CC[C@H](C(=O)Nc3ccn(-c4cccc(F)c4)n3)CC2)c2cnccc21 :: 1.00

Qu. Name the recorded log10(CLhep predicted) of the item `O=C1O[C@]2(CC[C@H](C(=O)Nc3ccn(-c4ccccc4)n3)CC2)c2cnccc21` in your answer.
Ans. 1.30

Qu. Name the recorded log10(CLhep predicted) of the item `O=C1O[C@]2(CC[C@H](C(=O)Nc3cc(-c4ccccc4)on3)CC2)c2ncccc21` in your answer.
Ans. 1.56

Qu. Name the recorded log10(CLhep predicted) of the item `O=C1O[C@]2(CC[C@H](C(=O)Nc3cc(-c4ccccc4)on3)CC2)c2cnccc21` in your answer.
Ans. 0.78

----------
# experiment: in vitro
# condition_description: rat, hepatocytes
Each entry below lists one item and its recorded CLhep predicted value.

Qu. Name the recorded CLhep predicted of the item `O=C1O[C@]2(CC[C@H](C(=O)Nc3cnc(-c4ccccc4)cn3)CC2)c2ccncc21` in your answer.
Ans. 42 mL/min/kg

Qu. Name the recorded CLhep predicted of the item `O=C1O[C@]2(CC[C@H](C(=O)Nc3ccn(-c4ccc(F)cc4)n3)CC2)c2cnccc21` in your answer.
Ans. 7 mL/min/kg

Qu. Name the recorded CLhep predicted of the item `O=C1O[C@]2(CC[C@H](C(=O)Nc3cnc(-c4ccccc4)cn3)CC2)c2cnccc21` in your answer.
Ans. 36 mL/min/kg

Qu. Name the recorded CLhep predicted of the item `O=C1O[C@]2(CC[C@H](C(=O)Nc3cnc(-c4ccccc4)cn3)CC2)c2ccccc21` in your answer.
Ans. 35 mL/min/kg

Qu. Name the recorded CLhep predicted of the item `O=C1O[C@]2(CC[C@H](C(=O)Nc3ccc(-c4ccccc4)cn3)CC2)c2cnccc21` in your answer.
Ans. 14 mL/min/kg

Qu. Name the recorded CLhep predicted of the item `O=C1O[C@]2(CC[C@H](C(=O)Nc3cnc(-c4ccccc4)cn3)CC2)c2ncccc21` in your answer.
Ans. 39 mL/min/kg

Qu. Name the recorded CLhep predicted of the item `O=C1O[C@]2(CC[C@H](C(=O)Nc3ncc(-c4ccccc4)cn3)CC2)c2cccnc21` in your answer.
Ans. 49 mL/min/kg

Qu. Name the recorded CLhep predicted of the item `O=C1O[C@]2(CC[C@H](C(=O)Nc3ncc(-c4ccccc4)cn3)CC2)c2cnccc21` in your answer.
Ans. 39 mL/min/kg

Qu. Name the recorded CLhep predicted of the item `O=C1O[C@]2(CC[C@H](C(=O)Nc3cnc(-c4ccccc4)cn3)CC2)c2cccnc21` in your answer.
Ans. 18 mL/min/kg

Qu. Name the recorded CLhep predicted of the item `O=C1O[C@]2(CC[C@H](C(=O)Nc3cc(-c4ccccc4)[nH]n3)CC2)c2cccnc21` in your answer.
Ans. 2 mL/min/kg

----------
# experiment: in vitro
# condition_description: rat, hepatocytes
quantity_measured: CLhep predicted (mL/min/kg)
Numeric answer only, unit mL/min/kg assumed.

O=C1O[C@]2(CC[C@H](C(=O)Nc3cc(-c4ccccc4)[nH]n3)CC2)c2cnccc21 :: 3

Qu. Name the recorded CLhep predicted of the item `O=C1O[C@]2(CC[C@H](C(=O)Nc3cnn(-c4ccccc4)c3)CC2)c2cccnc21` in your answer.
Ans. 1

Qu. Name the recorded CLhep predicted of the item `O=C1O[C@]2(CC[C@H](C(=O)Nc3cc(-c4ccccc4)n[nH]3)CC2)c2ccncc21` in your answer.
Ans. 9

Qu. Name the recorded CLhep predicted of the item `O=C1O[C@]2(CC[C@H](C(=O)Nc3ncc(-c4ccccc4)cn3)CC2)c2ncccc21` in your answer.
Ans. 49
